- System: recombinant human 5-HT5A receptor (Homo sapiens)
- Construct: membranes
- Sequence (P47898 whole entry): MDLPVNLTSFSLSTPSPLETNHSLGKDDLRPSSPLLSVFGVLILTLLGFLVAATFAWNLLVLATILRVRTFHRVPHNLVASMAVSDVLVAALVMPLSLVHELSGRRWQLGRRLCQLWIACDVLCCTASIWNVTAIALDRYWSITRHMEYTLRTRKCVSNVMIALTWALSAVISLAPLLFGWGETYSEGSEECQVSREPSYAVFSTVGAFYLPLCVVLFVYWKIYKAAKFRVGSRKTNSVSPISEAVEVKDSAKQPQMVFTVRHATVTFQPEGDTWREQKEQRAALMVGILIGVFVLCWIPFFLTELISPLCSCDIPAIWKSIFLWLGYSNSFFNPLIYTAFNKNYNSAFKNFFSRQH
- Assay details: [3H]LSD radioligand binding assay
- Applied conditions: [3H]LSD approx. 1 nM; membranes from HEK-EBNA cells transiently expressing 5-HT5A; Ki by Cheng-Prussoff equation
Readout type: Ki (nM)

Study these solved cases before continuing.
Compound	Output unit	Data value
Cc1ccc(CNc2ccc3c(N)cccc3n2)o1	nM	83.8
Nc1cccc2nc(Nc3cccc(C4CC4)c3)ccc12	nM	71.2
CC1Cc2cccc(Nc3ccc4c(N)cccc4n3)c2O1 (stereo not drawn)	nM	49.4
CC1Cc2cccc(Nc3ccc4c(NS(=O)(=O)N(C)C)cccc4n3)c2O1 (stereo not drawn)	nM	101
COc1ccccc1CNc1ccc2c(C(=N)NO)cccc2n1	nM	44.7
Cc1ccc(CNc2ccc3c(NCC[S+](C)[O-])cccc3n2)o1 (stereo not drawn)	nM	99.3
Cc1cc2cccc(Nc3ccc4c(N)cccc4n3)c2o1	nM	112
Cc1ccc(CNc2ccc3c(NC4CCOCC4)cccc3n2)o1	nM	92
Cc1ccc(CNc2ccc3c(CCCCO)cccc3n2)o1	nM	61.8
Nc1cccc2nc(NCc3ccccc3OC(F)(F)F)ccc12	nM	93.9

(a) COc1ccccc1CNc1ccc2c(N)cccc2n1
(b) CSCCNc1cccc2nc(NCc3ccc(C)o3)ccc12
(c) CC1(C)Cc2cccc(Nc3ccc4c(N)cccc4n3)c2O1
(d) COc1ccccc1CNc1ccc2c(OCCSC)cccc2n1
Ordering criterion: Ki; begin with the maximum. # respond with the labels, arranged in the requested order d, b, c, a
